Values compiled from patent US12173020B2.

system: methicillin-resistant Staphylococcus aureus (MRSA); assay: agar dilution method, inhibitory effect on MRSA; type: cell-based
MEASURED PARAMETER: Minimum inhibitory concentration (MIC50, μg/ml) MRSA (µg/mL)

O=C1O[C@H](C(F)OP(=O)(O)O)CN1c1ccc(-c2ccc(-c3nnn(C4CC4)n3)nc2)c(F)c1 (stereo partly shown)    0.6

I: CCn1nnc(-c2ccc(-c3ccc(N4C[C@H](C(O)C(F)F)OC4=O)cc3F)cn2)n1.O=P(O)(O)O (stereo partly shown)
II: CCCn1nnc(-c2ccc(-c3ccc(N4C[C@@H](C(O)C(F)(F)F)OC4=O)cc3F)cn2)n1.O=P(O)(O)O (stereo partly shown)
III: Cn1nnc(-c2ccc(-c3ccc(N4C[C@@H](C(O)C(F)(F)F)OC4=O)cc3F)cn2)n1.O=P(O)(O)O (stereo partly shown)
[in] Order these by Minimum inhibitory concentration (MIC50, μg/ml) MRSA, descending, and give the full ranking. I would appreciate it if you listed the labels in the requested order.
[out] III, II, I
